Reported Efficacy values for a set of compounds
- System: SK-OV-3
- measurement_protocol: Efficacy is growth inhibition activity at 10 uM concentration relative to the maximum activity observed for 4-HPR with SK-OV-3 cell line
- Type: functional
Report the value in % with no unit label.

Example cases with answers are listed next.
CC1=C(/C=C/C(C)=C/C=C/C(C)=C/C(=O)Nc2ccc(O)cc2)C(C)(C)CCC1 [FENRETINIDE]	100
CC1(C)CC(C)(C)c2cc(N/C(S)=N/c3ccc(S(N)(=O)=O)cc3)ccc2S1	50.5
Cc1cc([N+](=O)[O-])ccc1/N=C(\S)Nc1ccc2c(c1)C(C)(C)CC(C)(C)S2	78.4
CCOC(=O)c1ccc(N/C(S)=N/c2cc3c(cc2C)SC(C)(C)CC3(C)C)cc1	85.4

Query string: Consider the compound shown here: CCOC(=O)c1ccc(NC(=O)Nc2cc3c(cc2C)SC(C)(C)CC3(C)C)cc1 What is its recorded Efficacy?
Result string: 75.7

Query string: Could you share which Efficacy value was measured for CCOC(=O)c1ccc(NC(=O)Nc2ccc3c(c2)C(C)(C)CC(C)(C)S3)cc1 ?
Result string: 71.8

Query string: Please report the recorded Efficacy for CC1(C)CC(C)(C)c2cc(NC(=S)Nc3ccc([N+](=O)[O-])cc3)ccc2S1 .
Result string: 69.1

Query string: Which value of Efficacy has been reported for Cc1cc2c(cc1/N=C(\S)Nc1ccc(S(N)(=O)=O)cc1)C(C)(C)CC(C)(C)S2 in the records?
Result string: 67.7

Query string: Returns the measured Efficacy for the input compound. Input: CCOC(=O)c1ccc(N/C(S)=N/c2ccc3c(c2)C(C)(C)CC(C)(C)S3)cc1
Result string: 64.9
